tgt: T1, mouse NSP4 (mNSP4), form not stated in Example 6 (mouse, UniProt Q14B24 40-284, limits assumed)
T1 construct: also called recombinant mouse NSP4; purified mouse NSP4
T1 sequence (looked up): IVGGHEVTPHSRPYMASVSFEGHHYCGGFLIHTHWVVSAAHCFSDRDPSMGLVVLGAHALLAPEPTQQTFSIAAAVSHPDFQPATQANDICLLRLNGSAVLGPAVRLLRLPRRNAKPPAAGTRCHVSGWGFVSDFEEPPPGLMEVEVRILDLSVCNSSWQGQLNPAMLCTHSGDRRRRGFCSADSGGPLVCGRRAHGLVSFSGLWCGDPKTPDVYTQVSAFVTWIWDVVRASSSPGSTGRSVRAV
experiment: ratio of phage IC50 against the parental clone 35.WT
propertyMeasured: Affinity improvement to mNSP4
Kindly report the value followed by its unit.

INSERT INTO assay_data (binder, propertymeasured, result) VALUES
  ('affinity matured anti-NSP4 antibody clone 35.50 (Fab, V domains shown) VH: EVQLVESGGGLVQPGGSLRLSCAASGFTFSDNDISWVRQAPGKGLEWVGSISPDNGDTNYADSVKGRFTISADTSKNTAYLQMNSLRAEDTAVYYCARDDVPAVFTSAMDYWGQGTLVTVSS VL: DIQMTQSPSSLSASVGDRVTITCRASQDVSTAVAWYQQKPGKAPKLLIYSASFLYSGVPSRFSGSGSGTDFTLTISSLQPEDFATYYCQQSYDFPLTFGQGTKVEIKR', 'Affinity improvement to mNSP4', '1.7 fold'),
  ('affinity matured anti-NSP4 antibody clone 35.62 (Fab, V domains shown) VH: EVQLVESGGGLVQPGGSLRLSCAASGFTFSDNDISWVRQAPGKGLEWVGSISPDNGDTNYADSVKGRFTISADTSKNTAYLQMNSLRAEDTAVYYCARDDVPAVFTSAMDYWGQGTLVTVSS VL: DIQMTQSPSSLSASVGDRVTITCRASQDVSTAVAWYQQKPGKAPKLLIYSASFLYSGVPSRFSGSGSGTDFTLTISSLQPEDFATYYCQQSAGFPLTFGQGTKVEIKR', 'Affinity improvement to mNSP4', '0.6 fold'),
  ('affinity matured anti-NSP4 antibody clone 35.77 (Fab, V domains shown) VH: EVQLVESGGGLVQPGGSLRLSCAASGFTFSGSGIHWVRQAPGKGLEWVAWISPTGGNTYYADSVKGRFTISADTSKNTAYLQMNSLRAEDTAVYYCAKRHLHNVAFDYWGQGTLVTVSS VL: DIQMTQSPSSLSASVGDRVTITCRASQDVSTAVAWYQQKPGKAPKLLIYSASFLYSGVPSRFSGSGSGTDFTLTISSLQPEDFATYYCQQAYSAPPTFGQGTKVEIKR', 'Affinity improvement to mNSP4', '2 fold');

stdin: I'd like to know its Affinity improvement to mNSP4. The binder in question is affinity matured anti-NSP4 antibody clone 35.14 (Fab, V domains shown) VH: EVQLVESGGGLVQPGGSLRLSCAASGFTFSDNDISWVRQAPGKGLEWVGSISPDNGDTNYADSVKGRFTISADTSKNTAYLQMNSLRAEDTAVYYCARDDVPAVFTSAMDYWGQGTLVTVSS VL: DIQMTQSPSSLSASVGDRVTITCRASQDVSTAVAWYQQKPGKAPKLLIYSASFLYSGVPSRFSGSGSGTDFTLTISSLQPEDFATYYCQQSYGFPLTFGQGTKVEIKR
stdout: 2.7 fold
